Biological target: A2AAR (Homo sapiens)
Sequence (P29274 whole entry): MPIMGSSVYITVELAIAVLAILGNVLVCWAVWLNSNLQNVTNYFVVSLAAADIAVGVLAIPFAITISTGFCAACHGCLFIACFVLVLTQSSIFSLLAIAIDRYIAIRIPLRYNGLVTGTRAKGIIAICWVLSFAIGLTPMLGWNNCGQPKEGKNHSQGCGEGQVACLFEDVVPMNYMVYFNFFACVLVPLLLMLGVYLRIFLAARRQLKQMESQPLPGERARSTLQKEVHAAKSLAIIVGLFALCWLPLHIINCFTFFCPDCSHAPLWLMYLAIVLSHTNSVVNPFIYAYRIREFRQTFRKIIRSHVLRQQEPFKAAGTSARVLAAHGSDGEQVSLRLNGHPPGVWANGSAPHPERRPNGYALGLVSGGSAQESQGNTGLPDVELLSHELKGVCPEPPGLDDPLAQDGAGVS
Test: Radioligand binding assay ([3H]ZM241385)
Details: [3H]ZM241385 0.5 nM, 90 min at 27°C, Cheng-Prusoff; read-out: Binding affinities (pKi) A2A (converted)
endpoint-label: Ki (µM)

[[record]]
chemical_smiles = "Nc1nc(-c2ccccc2Cl)nn1C(=O)c1cccc(Cl)c1"
assay_target = "A2AAR (Homo sapiens)"
unit_abbreviation = "µM"
readout_qualifier = "="
value_reported = 0.0692

[[record]]
chemical_smiles = "Cc1ccc(-c2c(C(=O)NCc3ccncc3)nc3ccccn23)cc1"
assay_target = "A2AAR (Homo sapiens)"
unit_abbreviation = "µM"
readout_qualifier = "="
value_reported = 11.7

[[record]]
chemical_smiles = "CC(=O)c1cccc(NC(=O)Nc2cc3c(cc2Oc2ccccc2)n(C)c(=O)n3C)c1"
assay_target = "A2AAR (Homo sapiens)"
unit_abbreviation = "µM"
readout_qualifier = ">"
value_reported = 100

[[record]]
chemical_smiles = "Cc1ccccc1-c1nc(N)n(C(=O)Cc2ccccc2)n1"
assay_target = "A2AAR (Homo sapiens)"
unit_abbreviation = "µM"
readout_qualifier = "="
value_reported = 5.75

[[record]]
chemical_smiles = "CCCNc1cc(C)nc2c(C)c(-c3ccc(C)cc3)nn12"
assay_target = "A2AAR (Homo sapiens)"
unit_abbreviation = "µM"
readout_qualifier = "="
value_reported = 8.32

[[record]]
chemical_smiles = "CCn1cnc2c(-c3ccccc3)cn(CC(=O)Nc3cccc(F)c3)c2c1=O"
assay_target = "A2AAR (Homo sapiens)"
unit_abbreviation = "µM"
readout_qualifier = ">"
value_reported = 100

[[record]]
chemical_smiles = "O=C(c1ccco1)n1nc(-c2ccco2)nc1NCc1ccccc1"
assay_target = "A2AAR (Homo sapiens)"
unit_abbreviation = "µM"
readout_qualifier = "="
value_reported = 19.5


---

# IC50 annotations
Target: A1AR (Homo sapiens, UniProt P30542)
Sequence (P30542 whole entry): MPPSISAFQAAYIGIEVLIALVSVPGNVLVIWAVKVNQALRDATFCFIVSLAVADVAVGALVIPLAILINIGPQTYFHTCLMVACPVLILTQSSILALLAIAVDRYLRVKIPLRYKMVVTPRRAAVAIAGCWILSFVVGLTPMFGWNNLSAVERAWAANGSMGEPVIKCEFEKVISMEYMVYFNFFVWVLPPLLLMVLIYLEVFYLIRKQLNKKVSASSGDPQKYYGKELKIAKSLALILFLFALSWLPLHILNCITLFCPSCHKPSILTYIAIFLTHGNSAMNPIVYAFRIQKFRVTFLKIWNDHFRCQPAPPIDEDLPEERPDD
Test: cAMP functional assay, CHO-A1 cells
Type: cell-based
Set-up: host or cells: CHO-A1 cells
Conditions: antagonism of NECA effect on cAMP, 5.08 × 10^−3 to 100 μM, read-out: cAMP assays (pIC50) A1 (converted)
endpoint-label: IC50

[[record]]
chemical_smiles = "O=C(CCCn1c2ccccc2c2cn[nH]c(=O)c21)NCc1cccs1"
endpoint_label = "IC50"
value_reported = "> 100 µM"

[[record]]
chemical_smiles = "Cc1ccccc1-c1nc(N)n(C(=O)Cc2ccccc2)n1"
endpoint_label = "IC50"
value_reported = "1.91 µM"

[[record]]
chemical_smiles = "CC(=O)c1cccc(NC(=O)Nc2cc3c(cc2Oc2ccccc2)n(C)c(=O)n3C)c1"
endpoint_label = "IC50"
value_reported = "4.47 µM"

[[record]]
chemical_smiles = "O=C(COc1ccccc1)Nc1c(C(=O)Nc2cccc(F)c2)oc2ccccc12"
endpoint_label = "IC50"
value_reported = "> 100 µM"

[[record]]
chemical_smiles = "Cn1c(=O)c2c(-c3cccc(Cl)c3)c(Nc3ccccc3)oc2n(C)c1=O"
endpoint_label = "IC50"
value_reported = "> 100 µM"

[[record]]
chemical_smiles = "O=C(Cn1c(=O)n(-c2ccccc2)c2ncccc21)NCc1cccc(F)c1"
endpoint_label = "IC50"
value_reported = "> 100 µM"

